Experiment: chemical genetic growth profiling, strain panel (AID 1159580);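 further: tested at 20 µM; growth read once vehicle control cultures reached saturation at 30 °C; 1 = growth at the plate median or of vehicle wells; lower values mean less growth of the strain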
Conditions: S. cerevisiae deletion strains, growth OD, locus YJL154C, strain vps35, active compounds read low
About 2,000 (36%) of roughly 5,500 compounds were called active. Not shown: some 18% with an inconclusive outcome. The list shows a part of the results.
TEST READOUT: normalized growth

> print(dat)
                                   compound  meas.value
1  COc1ccc([C@H]2Oc3cc(OC)cc(OC)c3C[C@H]2O)cc1       0.989
2  COc1cc([C@@H]2c3cc4c(c(O)c3C[C@H]3COC(=O)[C@@H]32)OCO4)cc(OC)c1OC       0.987
3  COc1ccc2c(c1)O[C@H]1c3ccc(OC)cc3OC[C@@H]21        1.02
4           O=c1cc(-c2ccccc2O)oc2cc(O)ccc12       0.979
5  C=C1CCC(OC(C)=O)/C(C)=C/C[C@@H]2[C@@H]1CC2(C)C (stereo not given in full)        1.01

====

Entries and their normalized growth values follow.
Test: chemical genetic growth profiling, strain panel (AID 1159580);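 further: tested at 20 µM; growth read once vehicle control cultures reached saturation at 30 °C; 1 = growth at the plate median or of vehicle wells; lower values mean less growth of the strain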
Conditions: S. cerevisiae deletion strains, growth OD, locus YDR001C, strain nth1, active compounds read low
Out of some 5,500 compounds screened, about 2,000 (36%) were called active. Another 18% or so got no clear call; they are omitted. Some of the results follow.
TEST READOUT: normalized growth

> print(dat)
                                    compound       test.readout  meas.value
 1  C=C1C(=O)OC2CC1C(OC(C)=O)C/C(C)=C/CC/C(C)=C/CC[C@]2(C)O (some centres not stated)  normalized growth       0.982
 2  CC(C)C(=O)Nc1ccc([N+](=O)[O-])c(C(F)(F)F)c1  normalized growth        1.02
 3  COc1cc2c(cc1OC)C1Cc3ccc(OC)c(OC)c3CN1CC2 (configuration not stated)  normalized growth       0.984
 4           CC(C)[C@@H]1CC[C@@H](C)C[C@H]1O  normalized growth       0.978
 5                    O=C1NC(=O)C(=O)C(=O)N1  normalized growth       0.981
 6                   Clc1cccc(Cl)c1NC1=NCCN1  normalized growth       0.972
 7             O=C(Cn1ccnc1[N+](=O)[O-])NCCO  normalized growth        1.01
 8                CCN(CC)CCOC(=O)c1ccc(N)cc1  normalized growth       0.973
 9  CC[C@H](C)C(=O)O[C@H]1C[C@@H](C)C=C2C=C[C@H](C)[C@H](CC[C@@H]3C[C@@H](O)CC(=O)O3)[C@H]21  normalized growth           1
10               NC(N)=NS(=O)(=O)c1ccc(N)cc1  normalized growth        0.99
11  COC(=O)C(O)c1ccccc1 (configuration not stated)  normalized growth        0.99
12                  CCCCC(=O)Oc1ccccc1C(=O)O  normalized growth       0.971
13             COc1c(OC)c2occc2c2oc(=O)ccc12  normalized growth       0.973
14                    Cc1cccc(C)c1NC1=NCCCS1  normalized growth        1.01
15  COc1cc([C@@H]2c3cc4c(c(O)c3C[C@H]3COC(=O)[C@@H]32)OCO4)cc(OC)c1OC  normalized growth       0.988
16  C=C1CCC(C2CC(=O)OC2=O)C(=O)CCC2C1CC2(C)C (configuration not stated)  normalized growth           1
17  C=C1CCC2C(CC2(C)C)C(=C)CC/C1=N\O (configuration not stated)  normalized growth           1
18  C[N+]1(C)C2CC(OC(=O)[C@@H](CO)c3ccccc3)CC1C1OC12 (some centres not stated)  normalized growth       0.975
19  CO/N=C(\C(=O)N[C@@H]1C(=O)N2C(C(=O)O)=C(COC(C)=O)CS[C@H]12)c1csc(N)n1  normalized growth       0.976
20              CCCCNc1ccc(C(=O)OCCN(C)C)cc1  normalized growth        1.01
21  COc1ccc([C@H]2Oc3cc(OC)cc(OC)c3C[C@H]2O)cc1  normalized growth       0.998
22                       COC(=O)C1=CCCN(C)C1  normalized growth           1
23        OC(Cn1cncn1)(Cn1cncn1)c1ccc(F)cc1F  normalized growth        1.01
24            CCCOc1ccc(C(=O)OCCN(CC)CC)cc1N  normalized growth           1
25  COc1ccc2c(c1)O[C@H]1c3ccc(OC)cc3OC[C@@H]21  normalized growth        1.01
26  NC(CO)C(=O)NNCc1ccc(O)c(O)c1O (configuration not stated)  normalized growth       0.982
27  CC[C@H](C)C(=O)O[C@H]1CCC=C2C=C[C@H](C)C(CCC3C[C@@H](O)CC(=O)O3)[C@H]21 (some centres not stated)  normalized growth           1
28                        O=c1[nH]oc2c1CCNC2  normalized growth       0.996
29  CC1(C)O[C@H]2[C@H](O)C[C@](O)(C(N)=O)C[C@H]2O1  normalized growth        1.01
30  N[C@@H](CC(=O)N1CCn2c(nnc2C(F)(F)F)C1)Cc1cc(F)c(F)cc1F  normalized growth       0.985
31        O=C(O)CN1C(=O)c2cccc3cccc(c23)C1=O  normalized growth       0.979
32           CCCCN(CCCC)CCCOC(=O)c1ccc(N)cc1  normalized growth       0.992
33  CO/N=C(\C(=O)NC1C(=O)N2C(C(=O)OC(C)OC(C)=O)=C(COC(N)=O)CSC12)c1ccco1 (configuration not stated)  normalized growth           1
34  CC1=CC2C(CC1=O)C(C)=CCC2C(C)C (configuration not stated)  normalized growth       0.996
35  CC(C(=O)O)c1ccc(C(=O)c2cccs2)cc1 (configuration not stated)  normalized growth       0.993
36                       CCOC(=O)c1ccc(O)cc1  normalized growth        1.01
37  C=C1CCC(OC(C)=O)/C(C)=C/C[C@@H]2[C@@H]1CC2(C)C (some centres not stated)  normalized growth           1

====

Experiment: chemical genetic growth profiling, strain panel (AID 1159580);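 further: tested at 20 µM; growth read once vehicle control cultures reached saturation at 30 °C; 1 = growth at the plate median or of vehicle wells; lower values mean less growth of the strain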
Conditions: S. cerevisiae deletion strains, growth OD, locus YOL006C, strain TOP1, active compounds read low
Out of some 5,500 compounds screened, about 2,000 (36%) were called active. About 18% were inconclusive and are not listed. The list shows a part of the results.
TEST READOUT: normalized growth

> print(dat)
                                item.smiles  meas.value
1             Nc1nc2ncc(=O)[nH]c2c(=O)[nH]1        1.11
2           Cc1cc(-c2ccccc2)nnc1NCCN1CCOCC1       0.959
3  CO/N=C(\C(=O)N[C@@H]1C(=O)N2C(C(=O)O)=C(COC(C)=O)CS[C@H]12)c1csc(N)n1        1.15
4      COc1cc2occ(-c3ccccc3)c(=O)c2c(OC)c1C       0.787
5  COc1cc(-c2coc3cc(OCc4ccccc4)c(OC)c(O)c3c2=O)cc(OCc2ccccc2)c1OC       0.936
6               NC(N)=NS(=O)(=O)c1ccc(N)cc1        1.09

====

Assay: chemical genetic growth profiling, strain panel (AID 1159580);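 further: tested at 20 µM; growth read once vehicle control cultures reached saturation at 30 °C; 1 = growth at the plate median or of vehicle wells; lower values mean less growth of the strain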
Conditions: S. cerevisiae deletion strains, growth OD, locus YGL227W, strain vid30, active compounds read low
About 2,000 (36%) of roughly 5,500 compounds were called active. About 18% were inconclusive and are not listed. Some of the results follow.
TEST READOUT: normalized growth

> print(dat)
                                   compound       test.readout  meas.value
1                      CC(C)NNC(=O)c1ccncc1  normalized growth       0.998
2  CC1=CC2C(CC1=O)C(C)=CCC2C(C)C (centres undefined)  normalized growth        1.01
3  CO[C@@]1(NC(=O)CSCC#N)C(=O)N2C(C(=O)O)=C(CSc3nnnn3C)CSC21 (some centres undefined)  normalized growth        1.01
4  CC1(C)O[C@H]2[C@H](O)C[C@](O)(C(N)=O)C[C@H]2O1  normalized growth        1.01
